Tested on: GM 15850 (lymphoblastoid cells line) cells
Assay: In-cell deacetylase inhibition assay (DAC assay)
Assay type: cell-based
Settings: Homo sapiens, GM15850; GM 15850 cells, 4 h incubation; read-out: 850 DAC (in-cell deacetylase inhibition IC50)
Entries and their measured IC50 follow.

[
  {
    "Smiles Structure": "Cn1cc(/C=C/C(=O)Nc2cc(F)ccc2N)cn1",
    "IC50": "> 20 µM"
  },
  {
    "Smiles Structure": "Nc1ccccc1NC(=O)/C=C/c1cnn(CCOCc2ccccc2)c1",
    "IC50": "5 to 10 µM"
  },
  {
    "Smiles Structure": "Cn1cnc(/C=C/C(=O)Nc2ccccc2N)c1",
    "IC50": "> 20 µM"
  },
  {
    "Smiles Structure": "Nc1ccccc1NC(=O)c1ccc(C=C2CCN(C(=O)OCc3ccccc3)CC2)cc1",
    "IC50": "> 20 µM"
  },
  {
    "Smiles Structure": "Nc1ccccc1NC(=O)/C=C/c1cn2ccnc2s1",
    "IC50": "10 to 20 µM"
  },
  {
    "Smiles Structure": "Nc1ccccc1NC(=O)c1ccc(C=C2CN(Cc3cccnc3)C2)c(Cl)c1",
    "IC50": "10 to 20 µM"
  },
  {
    "Smiles Structure": "Nc1ccccc1NC(=O)/C=C/c1cnn(CCCc2ccccc2)c1",
    "IC50": "1 to 5 µM"
  },
  {
    "Smiles Structure": "Nc1ccccc1NC(=O)c1ccc(C=C2CN(Cc3ccc4cc[nH]c4c3)C2)c(Cl)c1",
    "IC50": "5 to 10 µM"
  },
  {
    "Smiles Structure": "Nc1ccccc1NC(=O)/C=C/c1cnn(CCOc2ccc(F)cc2)c1",
    "IC50": "5 to 10 µM"
  },
  {
    "Smiles Structure": "Nc1ccccc1NC(=O)/C=C/c1cnn(CCCOc2ccccc2)c1",
    "IC50": "1 to 5 µM"
  }
]
